- System: MET
- condition-description: concentration: 1 μM, replicates: in singlicate; n = 1
endpoint: %Inh (%)
Expressed in %, but write only the number.

The following molecules have reported results that may help.
>  <molecule>
COc1ccc(S(=O)(=O)NC2CCN(c3cc(C)nc(Nc4cccc(C#N)c4)n3)CC2)cc1.O=C(O)C(F)(F)F [GSK1653539]

>  <test-target>
MET

>  <%Inh / %>
0

$$$$
>  <molecule>
CC(C)(C)n1cnc2c(N)ncnc21 [SKF-97359]

>  <test-target>
MET

>  <%Inh / %>
0

$$$$
>  <molecule>
Cc1ccc(NC(=O)c2ccnc(N3CCN(C)CC3)c2)cc1-c1ccc(C(=O)NCC2CC2)cc1 [GW775604]

>  <test-target>
MET

>  <%Inh / %>
0

$$$$
>  <molecule>
Cc1c(Cn2c(C)nn3c(=O)cc(N4CCOC(C)C4)nc23)cccc1C(F)(F)F (stereo not drawn) [GSK2344444]

>  <test-target>
MET

>  <%Inh / %>
0

$$$$
>  <molecule>
Cc1c2ccc(N(C)c3ccnc(Nc4cccc(S(N)(=O)=O)c4)n3)cc2nn1Cc1ccccc1.Cl.Cl [GW787226]

>  <test-target>
MET

>  <%Inh / %>
60

$$$$
>  <molecule>
CCCCCc1nc2c(N)ncnc2n1CCCCC [SKF-97255]

>  <test-target>
MET

>  <%Inh / %>
0

$$$$
>  <molecule>
O=C(NCCNc1ccnc(Nc2ccc(F)cc2)n1)c1cc2ccccc2s1 [GSK1379874]

>  <test-target>
MET

>  <%Inh / %>
0

$$$$
>  <molecule>
Cc1nnc(-c2ccc3ncc(-c4ccc(S(C)=O)cc4)n3c2)o1 (stereo not drawn)

>  <test-target>
MET;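 further: KINOMEscan kinase panel screen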

>  <%Inh / %>
15

$$$$

Consider now this further molecule.
// %Inh (MET) for N#Cc1ccc(-c2cc(-c3c[nH]nc3-c3ccccn3)ccn2)cc1 [GW693028] = 0
